Each recorded value in this set is attributed to ChEMBL document CHEMBL4382235.

- ASSAY: Tmax in Sprague-Dawley rat at 15 mg/kg, po by LC-MS/MS analysis
- Type: ADME, organism-based
- ASSAY_CONDITIONS: in vivo
METRIC_NAME: Tmax (h)

1) Cc1cc(O)c(-c2ccc([C@@H](C)CN)cc2)c2c1[nH]c(=O)c1c(O)cccc12 : 6.67
